# TARGET: F508delCFTR (Homo sapiens, UniProt P13569, DEL508-508)
# Construct: expressed in transfected cells; host or cells: CFBE41o- human lung derived epithelial cells (CFBE41o-F508delCFTR-HRP), doxycycline-inducible
# Sequence (P13569 with tags, fused parts or gaps DEL508-508): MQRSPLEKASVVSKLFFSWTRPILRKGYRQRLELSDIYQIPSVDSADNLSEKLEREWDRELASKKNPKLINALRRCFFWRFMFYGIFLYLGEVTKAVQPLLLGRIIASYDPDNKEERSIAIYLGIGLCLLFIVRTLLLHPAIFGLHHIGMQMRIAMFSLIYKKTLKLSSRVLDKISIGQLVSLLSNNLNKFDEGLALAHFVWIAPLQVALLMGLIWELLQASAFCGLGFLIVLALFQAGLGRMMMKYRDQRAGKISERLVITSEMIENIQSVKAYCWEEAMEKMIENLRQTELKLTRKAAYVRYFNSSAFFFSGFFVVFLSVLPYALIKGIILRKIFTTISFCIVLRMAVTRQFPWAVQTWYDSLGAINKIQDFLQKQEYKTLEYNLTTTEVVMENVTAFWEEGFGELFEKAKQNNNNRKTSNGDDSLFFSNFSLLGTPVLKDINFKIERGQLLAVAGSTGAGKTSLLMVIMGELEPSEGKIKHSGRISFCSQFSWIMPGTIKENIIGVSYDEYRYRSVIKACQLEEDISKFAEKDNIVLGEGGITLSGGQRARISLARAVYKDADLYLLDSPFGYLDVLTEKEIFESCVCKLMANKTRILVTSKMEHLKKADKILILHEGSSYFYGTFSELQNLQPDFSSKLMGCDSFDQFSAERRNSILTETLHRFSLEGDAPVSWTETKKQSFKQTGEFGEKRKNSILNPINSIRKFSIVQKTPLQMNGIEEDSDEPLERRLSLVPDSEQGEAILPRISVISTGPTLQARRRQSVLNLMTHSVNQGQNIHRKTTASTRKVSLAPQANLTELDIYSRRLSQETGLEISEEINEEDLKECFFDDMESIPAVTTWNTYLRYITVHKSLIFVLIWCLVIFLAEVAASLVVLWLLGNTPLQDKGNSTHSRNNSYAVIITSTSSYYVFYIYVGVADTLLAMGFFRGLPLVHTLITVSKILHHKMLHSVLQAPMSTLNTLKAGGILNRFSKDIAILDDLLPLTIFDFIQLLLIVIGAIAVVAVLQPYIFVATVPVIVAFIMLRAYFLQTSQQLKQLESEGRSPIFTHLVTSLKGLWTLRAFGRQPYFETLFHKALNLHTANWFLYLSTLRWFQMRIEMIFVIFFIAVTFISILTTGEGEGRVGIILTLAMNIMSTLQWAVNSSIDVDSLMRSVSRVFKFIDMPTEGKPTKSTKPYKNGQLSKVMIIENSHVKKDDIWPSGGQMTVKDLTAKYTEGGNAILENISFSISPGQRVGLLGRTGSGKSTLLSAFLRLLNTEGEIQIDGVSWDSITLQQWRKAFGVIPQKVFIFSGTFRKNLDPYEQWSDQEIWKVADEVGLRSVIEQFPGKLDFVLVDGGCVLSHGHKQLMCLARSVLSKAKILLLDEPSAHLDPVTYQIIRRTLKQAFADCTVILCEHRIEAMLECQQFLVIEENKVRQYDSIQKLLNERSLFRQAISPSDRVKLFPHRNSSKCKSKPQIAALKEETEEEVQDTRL
# TEST_NAME: Cell Surface Expression-Horse Radish Peroxidase (CSE-HRP) Assay;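 further: co-corrector chromenyl benzoic acid corrector at 2 or 3 µM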
# Type: cell-based
# MEASUREMENT_SETUP: with co-corrector; read-out: EC50 (with co-corrector)
pEC50: −log10 of the molar value.
Kindly supply the reported pEC50 values for the records listed here.

Lookup: Quote F508delCFTR (Homo sapiens, UniProt P13569, DEL508-508) pEC50 for entry COc1cc(C2CCC2)cc(OC)c1C1(C(=O)NS(=O)(=O)c2cccc3c2ccn3C)CC1 .
Found: > 5.52

Lookup: Quote F508delCFTR (Homo sapiens, UniProt P13569, DEL508-508) pEC50 for entry COc1ccc(C2CCC2)cc1C1(C(=O)NS(=O)(=O)c2cccc3c2ccn3C)CC1 .
Found: > 5.52

Lookup: Quote F508delCFTR (Homo sapiens, UniProt P13569, DEL508-508) pEC50 for entry O=C(NS(=O)(=O)c1ccccc1)C1(c2ccc(Cl)c(Cl)c2)CC1 .
Found: < 5.00

Lookup: Quote F508delCFTR (Homo sapiens, UniProt P13569, DEL508-508) pEC50 for entry O=C(NS(=O)(=O)c1cccc2c1CCCN2)C1(c2ccc(C(F)(F)F)nc2C2CC2)CC1 .
Found: > 5.52

Lookup: Quote F508delCFTR (Homo sapiens, UniProt P13569, DEL508-508) pEC50 for entry COc1ncc(C2CCC2)c(C)c1C1(C(=O)NS(=O)(=O)c2cccc3nc(C)ccc23)CC1 .
Found: > 5.52

Lookup: Quote F508delCFTR (Homo sapiens, UniProt P13569, DEL508-508) pEC50 for entry Cc1ccc(OC(C)C)c(C2(C(=O)NS(=O)(=O)c3cccc4[nH]ccc34)CC2)c1 .
Found: > 5.52

Lookup: Quote F508delCFTR (Homo sapiens, UniProt P13569, DEL508-508) pEC50 for entry COc1cccc(C2(C(=O)NS(=O)(=O)c3cccc4ncccc34)CC2)c1 .
Found: 5.00 to 5.52

Lookup: Quote F508delCFTR (Homo sapiens, UniProt P13569, DEL508-508) pEC50 for entry O=C(NS(=O)(=O)c1cccc2ncccc12)C1(c2cccc(Br)c2)CC1 .
Found: 5.00 to 5.52

Lookup: Quote F508delCFTR (Homo sapiens, UniProt P13569, DEL508-508) pEC50 for entry CCc1ccc(OC)c(C2(C(=O)NS(=O)(=O)c3cccc4[nH]ncc34)CC2)c1 .
Found: > 5.52

Lookup: Quote F508delCFTR (Homo sapiens, UniProt P13569, DEL508-508) pEC50 for entry Cc1ccccc1S(=O)(=O)NC(=O)C1(c2ccc(Cl)cc2)CC1 .
Found: 5.00 to 5.52

Lookup: Quote F508delCFTR (Homo sapiens, UniProt P13569, DEL508-508) pEC50 for entry COc1ncc(C2CCC2)c(C)c1C1(C(=O)NS(=O)(=O)c2cccc3ccc(C)nc23)CC1 .
Found: > 5.52

Lookup: Quote F508delCFTR (Homo sapiens, UniProt P13569, DEL508-508) pEC50 for entry COc1nc2ccccc2cc1C1(C(=O)NS(=O)(=O)c2cccc3ncccc23)CC1 .
Found: > 5.52

Lookup: Quote F508delCFTR (Homo sapiens, UniProt P13569, DEL508-508) pEC50 for entry COc1ncc(C2CCC2)cc1C1(C(=O)NS(=O)(=O)c2cccc3cnn(C)c23)CC1 .
Found: > 5.52

Lookup: Quote F508delCFTR (Homo sapiens, UniProt P13569, DEL508-508) pEC50 for entry COc1cc(C2CCC2)cc(OC)c1C1(C(=O)NS(=O)(=O)c2cccn3nccc23)CC1 .
Found: > 5.52

Lookup: Quote F508delCFTR (Homo sapiens, UniProt P13569, DEL508-508) pEC50 for entry COc1ncc(C)cc1C1(C(=O)NS(=O)(=O)c2cccc3ccccc23)CC1 .
Found: 5.00 to 5.52

Lookup: Quote F508delCFTR (Homo sapiens, UniProt P13569, DEL508-508) pEC50 for entry COCC1(c2ccc(OC)c(C3(C(=O)NS(=O)(=O)c4cccc5nc(C)ccc45)CC3)c2)CC1 .
Found: > 5.52

Lookup: Quote F508delCFTR (Homo sapiens, UniProt P13569, DEL508-508) pEC50 for entry COc1ccc(C)c(OC)c1C1(C(=O)NS(=O)(=O)c2cccc3[nH]ccc23)CC1 .
Found: > 5.52
